# Test system: RXF 393
# procedure.text: NCI tumour cell line growth inhibition, 48 h
The source made the active and inactive calls. No stated cut-off is given here; in the data, active = GI50 up to about 1.1 µM and inactive = higher.
Collected GI50 values appear next to each entry.
measured.attribute: GI50

[[record]]
molecule = "O=C1/C(=C/c2ccccc2)CCC/C1=C\\c1ccc(O)c(CN2CCCCC2)c1"
measured_attribute = "GI50"
reported_result = "13.8 µM (inactive)"

[[record]]
molecule = "CC1(C)OC1COc1c2occc2cc2ccc(=O)oc12 (stereo unspecified)"
measured_attribute = "GI50"
reported_result = "> 100 µM (inactive)"

[[record]]
molecule = "O=C(CCn1ccnc1[N+](=O)[O-])NCCCn1ccnc1[N+](=O)[O-]"
measured_attribute = "GI50"
reported_result = "> 100 µM (inactive)"

[[record]]
molecule = "Nc1[nH]nc2ccccc12"
measured_attribute = "GI50"
reported_result = "> 100 µM (inactive)"

[[record]]
molecule = "O=C1CC2(CCNCC2)C(=O)N1N1CCCC1"
measured_attribute = "GI50"
reported_result = "> 100 µM (inactive)"

[[record]]
molecule = "Brc1ccc(C[P+]2(c3ccccc3)CCCCC2)cc1.[O-][Cl+3]([O-])([O-])[O-]"
measured_attribute = "GI50"
reported_result = "> 100 µM (inactive)"

[[record]]
molecule = "CNC1Cc2c[nH]c3cccc(c23)C12C=C(C)C(=O)O2 (stereo unspecified)"
measured_attribute = "GI50"
reported_result = "> 100 µM (inactive)"

[[record]]
molecule = "O=C1/C(=C/c2ccccc2)N=C(c2ccccc2)N1C1Nc2cc3c(cc2S1)NC(N1C(=O)/C(=C/c2ccccc2)N=C1c1ccccc1)S3 (stereo unspecified)"
measured_attribute = "GI50"
reported_result = "18.4 µM (inactive)"

[[record]]
molecule = "CSC(=S)Nc1cccc(C)n1"
measured_attribute = "GI50"
reported_result = "> 100 µM (inactive)"

[[record]]
molecule = "O=C1c2ccccc2C(=O)N1c1nc(-c2ccc(Cl)cc2)cc(N2N=C(c3ccc(Br)cc3)CC2c2ccccc2)n1 (stereo unspecified)"
measured_attribute = "GI50"
reported_result = "9.16 µM (inactive)"

[[record]]
molecule = "COC(=O)C1CCc2nnc(-c3cccnc3)n21 (stereo unspecified)"
measured_attribute = "GI50"
reported_result = "> 100 µM (inactive)"


====

# Tested on: CCRF-CEM
# procedure.text: NCI tumour cell line growth inhibition, 48 h
Activity calls are given as the source filed them. Cut-off read from the data, not from the text of the source: active = GI50 up to about 1.1 µM and inactive = higher.
Outcomes: active, inactive

[[record]]
molecule = "CCCCCCCCCCCC(=O)OCCOCCOCCOCCOCCOCc1ccccc1"
class_name = "inactive"

[[record]]
molecule = "CC1CC(=O)C(CC(=O)O)[C@H]1C(C(=O)C(=O)Nc1cc(Cl)ccc1Cl)[N+](=O)[O-] (stereo not given in full)"
class_name = "inactive"

[[record]]
molecule = "CN(C)CCCNc1ccc2nnn3c4ccc(OC(=O)c5ccccc5)cc4c(=O)c1c23"
class_name = "active"

[[record]]
molecule = "Nc1nc(Cl)cc(NCC2(CO)CC(Cc3ccccc3)C2)n1 (stereo not given)"
class_name = "inactive"

[[record]]
molecule = "COc1ccc(C(=O)CC(c2ccc(OC)c(OC)c2)c2c(O)oc3ccccc3c2=O)cc1OC (stereo not given)"
class_name = "inactive"


====

# Test system: NCI/ADR-RES
# procedure.text: NCI tumour cell line growth inhibition, 48 h
Active and inactive are the calls of the source. Rule as the data show it: active = GI50 up to about 1.1 µM and inactive = higher.
Outcomes: true (1) = active, false (0) = inactive

[[record]]
compound = "CC1=CC[C@@H]2[C@@H](CC[C@@]2(C)O)C(C)(C)[C@H]1CC[C@@H]1[C@@]2(C)CCC(=O)C(C)(C)O[C@@H]2CC[C@]1(C)O"
class_name = "false (0)"

[[record]]
compound = "O=C(O)C(=O)Cc1ccc2c(c1)OCO2"
class_name = "false (0)"

[[record]]
compound = "O=c1[nH]nc(-c2ccccc2)n1Nc1ccccc1"
class_name = "false (0)"

[[record]]
compound = "CCOC(=O)C(Cc1ccc(O)cc1)Nc1nc(=O)c2c(=O)oc(Cl)cc2o1 (configuration not stated)"
class_name = "false (0)"

[[record]]
compound = "COc1ccc(N2C(=O)CC(=O)N(NC(=O)C(C)Oc3ccccc3C)C2=S)cc1 (configuration not stated)"
class_name = "false (0)"

[[record]]
compound = "COc1cc2ncnc(NS(=O)(=O)c3cc4ccccc4s3)c2cc1OC"
class_name = "false (0)"

[[record]]
compound = "COc1cc(CNC(=O)CCCCCCCCCCSSCCCCCCCCCCC(=O)NCc2ccc(O)c(OC)c2)ccc1O"
class_name = "false (0)"

[[record]]
compound = "O=[N+]([O-])c1ccc(C2=Nn3c(nnc3-c3ccc(Cl)cc3)SC2)o1"
class_name = "false (0)"

[[record]]
compound = "O=c1[nH]nc(-c2ccccc2)n1-c1cccc([N+](=O)[O-])c1"
class_name = "false (0)"

[[record]]
compound = "N=c1oc2c(Cl)cc(Cl)cc2cc1C(=O)Nc1ccccn1"
class_name = "false (0)"

[[record]]
compound = "COc1cc2c(cc1OC)C(Cl)C(c1ccc(F)cc1)=C2Cl (configuration not stated)"
class_name = "false (0)"

[[record]]
compound = "O=c1cc(NNc2cccc3ccccc23)[nH]c(=O)[nH]1"
class_name = "false (0)"

[[record]]
compound = "COC(=O)C1=C(C(=O)OC)C2(c3ccccc3)c3ccccc3C(=O)C1N2C1CCCCC1 (configuration not stated)"
class_name = "false (0)"

[[record]]
compound = "CN/C(=N\\N=C1/C(=O)Nc2ccccc21)SCC(=O)c1ccc(Br)cc1"
class_name = "false (0)"

[[record]]
compound = "Cn1c2cc(Cl)ccc2c2ccc3c(c21)C(=O)C=CC3=O"
class_name = "false (0)"

[[record]]
compound = "Cc1n[nH]c(=O)n1/N=C/c1ccco1"
class_name = "false (0)"

[[record]]
compound = "CCOC(=O)C1CCC(=O)N1C(=O)c1cccc(Cl)c1 (configuration not stated)"
class_name = "false (0)"

[[record]]
compound = "O=S1(=O)CCN(Cc2ccccn2)CC1"
class_name = "false (0)"

[[record]]
compound = "CSC(=S)Nc1cccc(C)n1"
class_name = "false (0)"

[[record]]
compound = "CC1(C)O[C@H]([C@H](O)c2nnc3ccc(Cl)nn23)[C@@H]([C@H]2COC(C)(C)O2)O1"
class_name = "false (0)"

[[record]]
compound = "Cc1ccc(/C=C2\\CN(C)CC3C(c4ccc(C)cc4)=C(C#N)C(=O)NC23)cc1 (configuration not stated)"
class_name = "false (0)"

[[record]]
compound = "O=C1N[C@@H](COc2ccc(/C=N/c3ccc(CCc4ccc(/N=C/c5ccc(OC[C@@H]6COC(=O)N6)cc5)cc4)cc3)cc2)CO1"
class_name = "false (0)"

[[record]]
compound = "CC12CCC(/C(=N/c3ccc([N+](=O)[O-])cc3)C1=O)C2(C)C (configuration not stated)"
class_name = "false (0)"

[[record]]
compound = "Nc1nc(S)c2c(N)n[nH]c2c1C(=O)Nc1ccccc1"
class_name = "false (0)"

[[record]]
compound = "NC1=Nc2ccccc2Sc2nnc(-c3ccc(Cl)cc3)n21"
class_name = "false (0)"

[[record]]
compound = "O=C(CN1CCCCC1)CC(O)(C(F)(F)F)C(F)(F)F"
class_name = "false (0)"

[[record]]
compound = "C#C[C@]1(O)[C@@H](CO)O[C@@H](n2ccc(=O)[nH]c2=O)[C@@H]1O"
class_name = "true (1)"

[[record]]
compound = "O=C1c2ccccc2C(=O)N1[C@@H](Cc1ccccc1)C(=O)n1cccc1CO"
class_name = "false (0)"

[[record]]
compound = "CCOC(=O)c1ccc(Nc2nc3ccccc3nc2-c2cccs2)cc1"
class_name = "false (0)"

[[record]]
compound = "O=C(NCCCCNCCCNC(=O)c1cc(-c2ccccc2)nc2ccccc12)c1cc(-c2ccccc2)nc2ccccc12"
class_name = "false (0)"

[[record]]
compound = "CC(CO)(Nc1ccc([N+](=O)[O-])cc1[N+](=O)[O-])C(=O)O (configuration not stated)"
class_name = "false (0)"

[[record]]
compound = "O=C1c2ccccc2C(=O)N1c1nc(-c2ccc(Cl)cc2)cc(N2N=C(c3ccc(Br)cc3)CC2c2ccccc2)n1 (configuration not stated)"
class_name = "false (0)"

[[record]]
compound = "C1CCCCC2(CCCCCCCCC3(CCC1)OCCO3)OCCO2"
class_name = "false (0)"

[[record]]
compound = "O=[N+]([O-])c1ccc(-n2nc3ccc4nonc4c3n2)cc1"
class_name = "false (0)"

[[record]]
compound = "Nc1ccc(Oc2ccc(C34CC5C6CC7(c8ccc(Oc9ccc(N)cc9)cc8)CC5C(C3)C(C7)C6C4)cc2)cc1"
class_name = "false (0)"

[[record]]
compound = "C[N+](C)(C)C1=NNC2=Nc3ccccc3SC2=C1"
class_name = "false (0)"

[[record]]
compound = "O=C(c1ccc2ccccc2c1)C1S(=O)(=O)OCCOS1(=O)=O"
class_name = "false (0)"

[[record]]
compound = "COc1ccc2c(c1)nc1n2C(c2c(Cl)cccc2Cl)SC1 (configuration not stated)"
class_name = "false (0)"

[[record]]
compound = "CC1=CC(=O)/C(=C/NC(=S)Nc2ccccc2)C(=O)O1"
class_name = "false (0)"

[[record]]
compound = "COC(=O)[C@@H]1C[C@H]([Se]c2ccccc2)CN1C(=O)OCc1ccccc1"
class_name = "false (0)"

[[record]]
compound = "COc1cc(/C=C/C(=O)N[C@@H]2C(=O)N3[C@@H]2SC(C)(C)[C@@H]3C(=O)O)cc(OC)c1OC"
class_name = "false (0)"

[[record]]
compound = "O=c1c2c(sc3ccccc13)NCN(CCc1ccccc1)C2"
class_name = "false (0)"


Origin of measurements: ChEMBL document CHEMBL1201862
